TEST_NAME: soluble on expression in E. coli; label from the status in PepcDB or PDB records
OBSERVABLE: soluble on expression in E. coli

ADNEEDVEAEEEYTELTDISGVGPSKAESLREAGFESVEDVRGADQSALADVSGIGNALAARIKADVGGLEVESETEAEVEEEGGEEAPDEDVETELQARGLTEKTPDLSDEDARLLTQRHRVGKPQFNRQDHHKKKRVSTSWRKPRGQLSKQRRGIKGKGDTVEAGFRSPTAVRGKHPSGFEEVRVHNVDDLEGVDGDTEAVRIASKVGARKRERIEEEAEDAGIRVLNPTYVEVEVSE
soluble
MSNENKTIHDFELNLICDFFSNMERQGPGSPEVTLKALSFIDNLTEKSLIADIGCGTGGQTMVLAGHVTGQVTGLDFLSGFIDIFNRNARQSGLQNRVTGIVGSMDDLPFRNEELDLIWSEGAIYNIGFERGLNEWRKYLKKGGYLAVSECSWFTDERPAEINDFWMDAYPEIDTIPNQVAKIHKAGYLPVATFILPENCWTDHYFTPKVAAQKIFLTKYAGNKIAEEFSMLQSIEEELYHKYKEYYGYTFFIAKKIRLLEHHHHHH
soluble
